assay_target: T1, Anti-CD28 Fab (SEQ ID NOs: 696, 697)
T1 construct: Biotinylated and captured on neutravidin coated plates in the phage ELISA
T1 sequence (VH, as listed by the source, chain 1 of 2): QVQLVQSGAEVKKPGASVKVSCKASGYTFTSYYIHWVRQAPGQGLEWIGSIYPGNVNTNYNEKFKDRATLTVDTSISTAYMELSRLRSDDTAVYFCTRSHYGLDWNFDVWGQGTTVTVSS
T1 sequence (VL, as listed by the source, chain 2 of 2): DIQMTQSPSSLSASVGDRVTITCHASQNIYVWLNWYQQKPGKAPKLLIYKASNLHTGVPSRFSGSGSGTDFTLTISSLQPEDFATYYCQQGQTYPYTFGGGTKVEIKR
experiment_summary: phage ELISA; clonal phage on plate-captured anti-CD28 Fab pre-incubated with CD28 antigen as competitor
parameter: Phage binding ELISA, Anti-CD28 Fab signal in the presence of CD28
Number only, please.

Value lookup for Phage binding ELISA, Anti-CD28 Fab signal in the presence of CD28; key = YCDGHLAVYMAKCL (tested as crude clonal phage supernatant) [Phage-1006] 0.08

Cool, now YCEGHLGQYMEKCL (tested as crude clonal phage supernatant) [Phage-998] 0.08

Cool, now YCEGHAPVYMFKCL (tested as crude clonal phage supernatant) [Phage-997] 0.08

Cool, now YCDGHLPEYLAKCL (tested as crude clonal phage supernatant) [Phage-1005] 0.06

Cool, now YCEGHSIQYMTKCL (tested as crude clonal phage supernatant) [Phage-1001] 0.13
